Recorded values, source the RNAGym collection of RNA variant scans (doi:10.1093/molbev/msab373).

B1: Azoarcus group I ribozyme (parent)
chain: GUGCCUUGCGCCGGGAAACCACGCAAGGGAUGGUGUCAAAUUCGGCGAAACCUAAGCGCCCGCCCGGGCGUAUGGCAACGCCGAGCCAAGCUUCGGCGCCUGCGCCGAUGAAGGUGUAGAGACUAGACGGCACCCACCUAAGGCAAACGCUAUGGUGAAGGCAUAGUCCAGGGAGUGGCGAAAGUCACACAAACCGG

variants of: B1; test: reverse-splicing fitness (ratio to wild type); higher = more active; in vitro selection; Mg2+ level not given
Some variants, each annotated with its measured reverse-splicing fitness.

{"variantDesignation": "A111G A120G A145C C150U C169G U176A", "reverse-splicing fitness": 0.0412}
{"variantDesignation": "C82G A111G A120C C150G C169U U176A", "reverse-splicing fitness": 0.00806}
{"variantDesignation": "A120C A145U C150U C169G U176C", "reverse-splicing fitness": 0.0117}
{"variantDesignation": "C82U A120G A145C C150U C169A U176G", "reverse-splicing fitness": 0.00346}
{"variantDesignation": "C82U A120C A145G C150A C169U U176C", "reverse-splicing fitness": 0.0166}
{"variantDesignation": "C82A A120U C150A", "reverse-splicing fitness": 0.016}
{"variantDesignation": "C82G A111C A120U A145U C150U C169A U176C", "reverse-splicing fitness": 0.00293}
{"variantDesignation": "C82U A111C A145U C150A U176C", "reverse-splicing fitness": 0.022}
{"variantDesignation": "C82A A120C A145G C169G U176A", "reverse-splicing fitness": 0.0237}
{"variantDesignation": "C82G A111G A120G A145C C169G U176A", "reverse-splicing fitness": 0.0262}
{"variantDesignation": "A120G C169A U176G", "reverse-splicing fitness": 0.00677}
{"variantDesignation": "C82A A111C A120G A145G C150A U176G", "reverse-splicing fitness": 0.00772}
{"variantDesignation": "C82U A111C C150U C169G U176G", "reverse-splicing fitness": 0.00752}
{"variantDesignation": "C82G A111U A145C C169U U176A", "reverse-splicing fitness": 0.014}
{"variantDesignation": "C82U A111U A120U C150G C169G U176A", "reverse-splicing fitness": 0.00411}
{"variantDesignation": "C82G A111G A120G A145U C150G C169G U176A", "reverse-splicing fitness": 0.00751}
{"variantDesignation": "C82A A145U C150G C169G U176G", "reverse-splicing fitness": 0.0053}
{"variantDesignation": "A111G A120G A145G C150G C169A U176C", "reverse-splicing fitness": 0.0143}
{"variantDesignation": "A111U A145U C150G U176A", "reverse-splicing fitness": 0.138}
{"variantDesignation": "C82A A111G A120G A145G", "reverse-splicing fitness": 0.0165}
{"variantDesignation": "C82G A111U A120G A145G C150U", "reverse-splicing fitness": 0.0139}
{"variantDesignation": "A111C C150A", "reverse-splicing fitness": 0.303}
{"variantDesignation": "C82A A111C A145U C150G C169U", "reverse-splicing fitness": 0.00887}
{"variantDesignation": "C82A A120C C150G C169A U176G", "reverse-splicing fitness": 0.00817}
{"variantDesignation": "C82U A111U A120C A145G C150A C169U U176G", "reverse-splicing fitness": 0.00615}
{"variantDesignation": "C82G A111U A120C A145C", "reverse-splicing fitness": 0.0408}
{"variantDesignation": "C82G A111U C150U C169G U176C", "reverse-splicing fitness": 0.0169}
{"variantDesignation": "A111C A120C C150A U176G", "reverse-splicing fitness": 0.0118}
{"variantDesignation": "C82G A111G A145C C150A C169A", "reverse-splicing fitness": 0.00763}
{"variantDesignation": "C82G A111U A145C C150A C169U U176G", "reverse-splicing fitness": 0.00599}
{"variantDesignation": "C82U A111C A120C A145U C150U U176A", "reverse-splicing fitness": 0.0105}
{"variantDesignation": "C82U A111U A145U C150A C169A U176A", "reverse-splicing fitness": 0.0123}
{"variantDesignation": "C82G A120G A145C C150A U176C", "reverse-splicing fitness": 0.00828}
{"variantDesignation": "C82U A145G C150U U176A", "reverse-splicing fitness": 0.315}
{"variantDesignation": "C82A A111U A120C A145U C150A U176G", "reverse-splicing fitness": 0.00762}
{"variantDesignation": "C82A A111G A120G A145U U176A", "reverse-splicing fitness": 0.0131}
{"variantDesignation": "C82G A120G A145U C150G U176G", "reverse-splicing fitness": 0.00404}
{"variantDesignation": "C82A A120C A145C C150A C169A U176G", "reverse-splicing fitness": 0.00574}
{"variantDesignation": "C82G A111G A120C A145G C150U C169G U176C", "reverse-splicing fitness": 0.0192}
{"variantDesignation": "C82A A111U A120G A145U C150A U176A", "reverse-splicing fitness": 0.0128}
{"variantDesignation": "C82G A111G A120C C150A C169A", "reverse-splicing fitness": 0.0106}
{"variantDesignation": "A120C C150G U176C", "reverse-splicing fitness": 0.114}
{"variantDesignation": "C82G A120G A145C C150G C169A U176C", "reverse-splicing fitness": 0.00681}
{"variantDesignation": "C82U A111G A120G A145U C150U C169U U176G", "reverse-splicing fitness": 0.00432}
{"variantDesignation": "C82U A111G A145C C150A C169A U176A", "reverse-splicing fitness": 0.0104}
{"variantDesignation": "C82U A111G A120C A145G", "reverse-splicing fitness": 0.0552}
